# target-of-assay: T1, human LTBP1-proTGFβ1 complex (human, UniProt Q14766 873-1507)
# T1 construct: range 873-1507; biotinylated in Octet and MSD-SET; also called hLTBP1-proTGFβ1; hLTBP1
# T1 sequence (Q14766 873-1507 limits assumed, chain 1 of 2): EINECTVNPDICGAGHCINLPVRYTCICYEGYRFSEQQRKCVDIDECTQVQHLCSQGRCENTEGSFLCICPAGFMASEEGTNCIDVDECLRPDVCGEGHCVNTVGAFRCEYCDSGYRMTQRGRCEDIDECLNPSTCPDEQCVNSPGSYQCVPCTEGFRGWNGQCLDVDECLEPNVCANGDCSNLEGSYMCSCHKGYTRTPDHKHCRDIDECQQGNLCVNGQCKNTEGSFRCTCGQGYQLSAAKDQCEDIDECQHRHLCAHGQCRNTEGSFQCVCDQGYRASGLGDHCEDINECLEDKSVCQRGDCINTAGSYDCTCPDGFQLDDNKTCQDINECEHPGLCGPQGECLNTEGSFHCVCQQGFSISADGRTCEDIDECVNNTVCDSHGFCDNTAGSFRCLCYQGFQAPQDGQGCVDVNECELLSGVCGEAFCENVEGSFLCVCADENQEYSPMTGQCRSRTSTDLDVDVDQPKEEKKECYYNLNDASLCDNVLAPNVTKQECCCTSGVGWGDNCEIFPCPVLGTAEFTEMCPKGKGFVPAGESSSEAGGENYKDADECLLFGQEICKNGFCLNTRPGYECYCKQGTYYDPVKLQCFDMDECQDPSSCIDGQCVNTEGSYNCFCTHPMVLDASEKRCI
# T1 sequence (chain, as listed by the source limits assumed, chain 2 of 2): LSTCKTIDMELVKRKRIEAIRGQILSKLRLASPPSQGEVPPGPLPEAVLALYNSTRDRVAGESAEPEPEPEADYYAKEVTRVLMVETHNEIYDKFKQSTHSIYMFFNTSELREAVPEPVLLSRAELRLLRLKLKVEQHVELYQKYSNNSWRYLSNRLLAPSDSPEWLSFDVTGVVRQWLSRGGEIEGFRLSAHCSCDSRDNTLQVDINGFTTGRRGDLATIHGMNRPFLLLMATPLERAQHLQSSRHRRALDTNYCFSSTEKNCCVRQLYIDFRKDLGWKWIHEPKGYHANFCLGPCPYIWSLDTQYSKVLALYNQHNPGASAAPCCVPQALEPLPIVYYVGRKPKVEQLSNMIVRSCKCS
# assay-name: BLI (Octet)
List of Kd values.
Field: numeric (pM). Do not append units.

Observe how each entry below is paired with its result.
- binder: "Ab29 (antibody, IgG4, V domains shown) VH: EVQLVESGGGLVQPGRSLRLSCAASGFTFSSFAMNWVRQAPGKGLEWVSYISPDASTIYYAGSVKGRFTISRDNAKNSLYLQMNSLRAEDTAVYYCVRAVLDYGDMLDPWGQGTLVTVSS VL: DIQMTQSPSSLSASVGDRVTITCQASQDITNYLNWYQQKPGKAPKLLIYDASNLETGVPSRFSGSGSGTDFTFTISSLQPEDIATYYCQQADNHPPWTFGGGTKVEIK"
  readout-name: "Kd"
  value: 189
- binder: "Ab11 (antibody, IgG4, V domains shown) VH: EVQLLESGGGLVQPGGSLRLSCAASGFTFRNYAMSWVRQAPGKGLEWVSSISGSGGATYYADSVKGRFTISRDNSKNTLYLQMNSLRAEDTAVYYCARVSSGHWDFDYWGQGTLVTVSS VL: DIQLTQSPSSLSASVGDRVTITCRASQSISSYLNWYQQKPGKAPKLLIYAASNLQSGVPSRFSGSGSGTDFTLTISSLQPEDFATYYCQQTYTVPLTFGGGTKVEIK"
  readout-name: "Kd"
  value: 167

Req: Report measured Kd; entry is Ab23 (antibody, V domains shown) VH: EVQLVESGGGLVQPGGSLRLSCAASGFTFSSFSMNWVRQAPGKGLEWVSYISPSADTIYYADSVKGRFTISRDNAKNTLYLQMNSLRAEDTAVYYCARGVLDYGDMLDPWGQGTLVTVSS VL: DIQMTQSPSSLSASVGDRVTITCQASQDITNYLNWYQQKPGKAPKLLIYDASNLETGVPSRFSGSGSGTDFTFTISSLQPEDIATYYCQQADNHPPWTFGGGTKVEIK
Resp: 417
